system: lambsquarters; test: Test B pre-/postemergence herbicide test; type: in vivo, Chenopodium album; settings: 500 g ai/ha; visual rating, 0 = no effect, 100 = complete control; preemergence
// reported Plant response rating, Lambsquarters for each item listed
Form: value (number only, do not type unit).

Here's what some known entries look like.
Compound	Observed value
CCn1nc(C(C)(C)C)cc1C(=O)Nc1cncc(C(=O)N(C)C)n1	100
CCc1cn(C(C)(C)C)nc1C(=O)Nc1cccc(C(=O)N(C)C)n1	0
CCn1nc(C(C)(C)C)cc1C(=O)Nc1cncc(C(=O)NCC(F)(F)F)n1	0

Tell me Plant response rating, Lambsquarters of CCC1=NN(C(C)(C)C)CC1C(=O)Nc1cc(C(=O)N2CCCC2)ccc1F (racemic) when tested on lambsquarters.
100

Tell me Plant response rating, Lambsquarters of CCN(C)C(=O)c1cc(NC(=O)c2cc(C(C)(C)C)nn2CC)c(F)cc1F when tested on lambsquarters.
100

###

// reported Crabgrass, Large plant response rating for each item listed
tested on: large crabgrass; test: Test A pre-/postemergence herbicide test; type: in vivo, Digitaria sanguinalis; details: preemergence, 500 g ai/ha; visual injury, 0 to 100 scale (0 no effect, 100 complete control)
Form: value (number only, do not type unit).

Substance smiles	Assayed target	Crabgrass, Large plant response rating
CCOc1ccc(F)c(NC(=O)c2cc(C(C)(C)C)nn2CC)c1	large crabgrass	0
Cc1nc(C(C)(C)C)sc1C(=O)Nc1cccc(C(=O)NCCF)c1	large crabgrass	70
C#CCNC(=O)c1cccc(NC(=O)c2cc(C(C)(C)C)nn2C)n1	large crabgrass	10

Fill in Crabgrass, Large plant response rating for record C#CCNC(=O)c1cccc(NC(=O)c2sc(C(C)(C)C)nc2CC)n1
0

###

test system: corn; assay: Test C pre-/postemergence herbicide test; assay type: in vivo, Zea mays; conditions: postemergence, 125 g ai/ha; scale 0 to 100
Property measured: Plant response rating, Corn
Form: value (number only, do not type unit).

Substance smiles	Plant response rating, Corn
CCn1nc(C(C)(C)C)cc1C(=O)Nc1cccc(OC(F)(F)C(F)F)c1	5
CCn1nc(C(C)(C)C)cc1C(=O)Nc1cccc(C(=O)OC)c1	40
CCn1nc(C(C)(C)C)cc1C(=O)Nc1ccc(F)c(C(=O)NCCF)c1	0
C#CCOC(=O)c1cccc(NC(=O)c2cc(C(C)(C)C)nn2CC)c1	0

Fill in Plant response rating, Corn for record CCn1nc(C(C)(C)C)cc1C(=O)Nc1cccc(C(=O)NC2CC2)n1
5

###

tested on: Surinam grass; assay: Test C pre-/postemergence herbicide test; assay type: in vivo, Urochloa decumbens; details: Preemergence, 500 g ai/ha; scale 0 to 100, 0 no effect, 100 complete control
Property measured: Surinam Grass plant response rating
Form: value (number only, do not type unit).

Here's what some known entries look like.
Compound	Surinam Grass plant response rating
C=CCNC(=O)c1cccc(NC(=O)c2sc(C(C)(C)C)nc2C)c1 [Compound 202]	60
CC(=NO)c1cccc(NC(=O)c2cc(C(C)(C)C)nn2C)c1 [Compound 102]	50

Fill in Surinam Grass plant response rating for record CCc1nn(C(C)(C)C)cc1C(=O)Nc1cccc(C(C)=NO)c1 [Compound 188]
80

Fill in Surinam Grass plant response rating for record CCN(CC)C(=O)c1cccc(NC(=O)c2cc(C(C)(C)C)nn2CC)n1 [Compound 145]
70

Fill in Surinam Grass plant response rating for record CCCn1nc(C(C)(C)C)cc1C(=O)Nc1cccc(C(=O)NCC)c1 [Compound 57]
75
